ASSAY METHOD TEXT: Human HepG2 cell viability assay in 384 well format
Assay type: toxicity, cell-based
Parameters: dose 125 nL, time 70.5 hour; concentration not given beside the values
MEASUREMENT PARAMETERS: HepG2 cells, read-out: Inhibition
REPORTED ENDPOINT: cytotoxicity at 70.5 h (%)
Report as a plain number; the unit % is understood.

Field: example entries. Status: answers known.
CC(=O)Nc1sc2c(c1C(=O)O)CCc1ccccc1-2; -11.4
Cc1ccsc1-c1nccn1CCN(C)S(C)(=O)=O; -1.88
CC(C)CC(=O)N1C[C@@H]2CCN(c3cnccn3)C[C@@H]2C1; -5.35
CC(C)C(NC(=O)Nc1cnn(CC(N)=O)c1)c1ccc(Cl)cc1 (configuration not stated); -1.5
Cn1cccc1C(=O)N1CCCCC12CC(=O)N(c1cccnc1)C2 (configuration not stated); -3.4

For CC(SCCC(=O)NC(N)=O)c1ccccc1F (configuration not stated) the compound record lists cytotoxicity at 70.5 h as -7.35

For CCOCc1ncn2c1CN(S(=O)(=O)c1ccc(OC)cc1)CC2 the compound record lists cytotoxicity at 70.5 h as -9.1

For Cc1nc(CN2CC(CCCc3ccccn3)(C(=O)N(C)C)C2)co1 the compound record lists cytotoxicity at 70.5 h as -1.84

For Cc1c(C(=O)OCC2CC(=O)N(c3ccccc3)C2)cnn1C(C)C (configuration not stated) the compound record lists cytotoxicity at 70.5 h as -0.00833

For Cn1cc(NC(=O)NCc2ccsc2)ccc1=O the compound record lists cytotoxicity at 70.5 h as -2.03

For COc1ccc(OCCc2sc(C3(O)CCCNCC3)nc2C)cc1 (configuration not stated) the compound record lists cytotoxicity at 70.5 h as 2.2

For Cc1cccc(C)c1OCC(=O)Nc1cccn(C)c1=O the compound record lists cytotoxicity at 70.5 h as -4.44

###

Parameter: cytotoxicity at 70.5 h. Scope: all listed entries.
ASSAY METHOD TEXT: Human HepG2 cell viability assay in 384 well format
Assay type: toxicity, cell-based
Set-up: dose 125 nL, time 70.5 hour; concentration not given beside the values
MEASUREMENT PARAMETERS: HepG2 cells, read-out: Inhibition
Report as a plain number; the unit % is understood.

Field: example entries. Status: answers known.
N#Cc1ccc(OCC(O)CN2CCC(Cn3cccn3)CC2)cc1 (configuration not stated); -3.6
O=C1CCC(c2ccccc2)=NN1CN1CCCCCC1; -14
CCn1ncc2c1C(COCC1CC1)CN(c1ccc(C)nn1)C2 (configuration not stated); -10.4

For Fc1cccc(C2(CNC3CCCNC3)CCOCC2)c1 (configuration not stated) the compound record lists cytotoxicity at 70.5 h as -1.46

For CC(=O)N(C)Cc1ccccc1NCc1c(C)noc1C the compound record lists cytotoxicity at 70.5 h as -3.61

For Cc1ccc(F)c(S(=O)(=O)NCc2cccc(C(=O)N3CCCC3)c2)c1 the compound record lists cytotoxicity at 70.5 h as 16.3

For COc1ccc(OCCN(C)c2cc(C)nc(N)n2)cc1 the compound record lists cytotoxicity at 70.5 h as -6.24

For O=C(CN1CCCC1)N1CCCC1c1nc(O)cc(-c2ccccn2)n1 (configuration not stated) the compound record lists cytotoxicity at 70.5 h as 11.1

###

ASSAY METHOD TEXT: Human HepG2 cell viability assay in 384 well format
Assay type: toxicity, cell-based
Design: dose 125 nL, time 70.5 hour; concentration not given beside the values
MEASUREMENT PARAMETERS: HepG2 cells, read-out: Inhibition
Parameter: cytotoxicity at 70.5 h. Scope: all listed entries.

Field: example entries. Status: answers known.
CNC(=O)[C@H]1C[C@@H]2CN(C(=O)c3cscn3)C[C@@H]2N1S(C)(=O)=O; -1.08%
c1cnc(CC2CCN(c3cnccn3)CC2)cn1; -7.05%
CCN1CC2(CCC1=O)CCN(Cc1cc(F)ccc1Cl)CC2; -0.396%

For CN(C)c1cc(CNC(=O)Nc2ccc(F)cc2)ccn1 the molecule record lists cytotoxicity at 70.5 h as 12.6%

For Cc1noc(C)c1-c1nc(C2CCCN(C(=O)C(C)C)C2)ccc1CO (stereo not drawn) the molecule record lists cytotoxicity at 70.5 h as -2.96%

###

ASSAY METHOD TEXT: Human HepG2 cell viability assay in 384 well format
Type: toxicity, cell-based
Set-up: dose 125 nL, time 70.5 hour; concentration not given beside the values
MEASUREMENT PARAMETERS: HepG2 cells, read-out: Inhibition
Parameter: cytotoxicity at 70.5 h. Scope: all listed entries.
Report as a plain number; the unit % is understood.

Cc1nn(C2CCS(=O)(=O)C2)c(O)c1CCc1ccccc1 (centres undefined); -8.16
C=C(C)CN(CC)Cc1nc(C)no1; -6.47
CC(C)[C@@H]1CN(C(=O)CN(C)Cc2ccc(F)cc2)C[C@H]1C(=O)O; -1.04
CCC(CC)c1nnc(NC(=O)NC(C)Cn2cccn2)s1 (centres undefined); 12.3
COCC(C)NC(=O)CSc1ccc(F)c(Cl)c1 (centres undefined); 12

For Clc1ccc(C2(NCc3noc(C4CC4)n3)CCC2)cc1 the compound record lists cytotoxicity at 70.5 h as -5.74

For CN(Cc1cc(C2CC2)on1)C(=O)CN1CC(c2ccccc2)CC1=O (centres undefined) the compound record lists cytotoxicity at 70.5 h as -8.22

For CC(C)NC(=O)N1CCC[C@H]1C(=O)NCCCc1cccc(F)c1 the compound record lists cytotoxicity at 70.5 h as -5.95

For CCS(=O)(=O)NCC1Cn2nnc(-c3cccc(C)c3)c2CO1 (centres undefined) the compound record lists cytotoxicity at 70.5 h as -5.93

###

ASSAY METHOD TEXT: Human HepG2 cell viability assay in 384 well format
Type: toxicity, cell-based
Parameters: dose 125 nL, time 70.5 hour; concentration not given beside the values
MEASUREMENT PARAMETERS: HepG2 cells, read-out: Inhibition
REPORTED ENDPOINT: cytotoxicity at 70.5 h (%)
Report as a plain number; the unit % is understood.

CCc1ncc(C(=O)N(CCOC)Cc2ccccc2F)cn1; -2.26
Cc1cc(C(=O)N2CCCC(c3cc(=O)nc4n3CCC4)C2)on1 (centres undefined); -6.58
O=C(c1cc(COc2ccc3c(c2)OCO3)[nH]n1)N1CCCC(O)C1 (centres undefined); 0.249
Cn1ccnc1CNC(=O)N(CCCO)C1CCCc2ccccc21 (centres undefined); 21.5
CS(=O)(=O)CCCN1CCN(C(C#N)c2ccccc2)CC1 (centres undefined); 0.393
Cc1cnc(N2Cc3cnn(Cc4ccc(F)cc4)c3C2)nc1N(C)C; -0.641

For O=C(Nc1ccccc1)c1nn(C2CCS(=O)(=O)C2)c2c1CCCC2 (centres undefined) the molecule record lists cytotoxicity at 70.5 h as -11.3

For Cc1ccc(-c2nnc([C@H]3CCN(C4CCC4)C3)o2)cc1 the molecule record lists cytotoxicity at 70.5 h as 16.3

For CN1CCC(N(Cc2ccncc2)C(=O)COCC2CCCCO2)CC1 (centres undefined) the molecule record lists cytotoxicity at 70.5 h as -1.65

For Cn1nccc1C(=O)NC(C)(C)c1noc(C(C)(C)C)n1 the molecule record lists cytotoxicity at 70.5 h as -16.4

For Cc1oc(-c2nc(C#N)c(NCC(C)C)o2)cc1S(=O)(=O)N1CCCC1 the molecule record lists cytotoxicity at 70.5 h as -13.1

###

Parameter: cytotoxicity at 70.5 h. Scope: all listed entries.
ASSAY METHOD TEXT: Human HepG2 cell viability assay in 384 well format
Format: toxicity, cell-based
Parameters: dose 125 nL, time 70.5 hour; concentration not given beside the values
MEASUREMENT PARAMETERS: HepG2 cells, read-out: Inhibition
Report as a plain number; the unit % is understood.

O=C(Nc1ccc2ncccc2c1)C1CC(=O)N(Cc2ccccn2)C1 (stereo unspecified); -4.54
CC(=O)Nc1ccc(CN(C)Cc2snnc2C)cc1; -5.27
CCOC(=O)CN1CCC2(CC1)CC(NC(=O)c1ccccn1)CO2 (stereo unspecified); -1.03
COc1ccc(CN2CCC3(CC(C(=O)NCC(C)C)=NO3)C2)cc1 (stereo unspecified); -6.44
Cc1nccn1C1(C(=O)O)CCN(Cc2ccc3occc3c2)CC1; -7.56
CCc1nsc(NC2CCOC3(CCCC3)C2)n1 (stereo unspecified); 1.42
Fc1cccc(-c2c[nH]c([C@@H]3COCCN3C3CCOCC3)n2)c1; -8.23
COCCN(Cc1ccccc1)C(=O)c1csc(-c2nnc[nH]2)n1; -5.25

For O=C(NCc1cccnc1N1CCc2ccccc2C1)c1cc(=O)[nH][nH]1 the molecule record lists cytotoxicity at 70.5 h as -3.06

For Cc1cnn(C2CN(c3nc(C)cc(N(C)C)n3)C2)c1 the molecule record lists cytotoxicity at 70.5 h as 0.987

For CCOc1cc(F)ccc1NC1CCN(CC(F)(F)F)C1=O (stereo unspecified) the molecule record lists cytotoxicity at 70.5 h as -0.756
